Test: RP, Merck Supelco Ascentis Express C18, 100 × 2.1 mm, 2 µm, 40 °C, 0.4 mL/min, estimated dead time 0.55 min; A: water + 0.1% formic acid, pH 3; B: acetonitrile + 0.1% formic acid, pH 3; gradient (min/%B) 0/5 2/5 17/99.9 20/99.9
Conditions: stereoisomer not certain
PROPERTY NAME: LC retention time (min)

Past entries and their recorded results:
molecule="CC(=O)Oc1cccc(O)c1 [RESORCINOL MONOACETATE]" result_number=5.14
molecule="NC(=O)[C@@H](N)Cc1c[nH]c2ccccc12 [L-TRYPTOPHANAMIDE]" result_number=1.53
molecule="CC(C)CC(N)C(=O)O (configuration not stated) [LEUCINE]" result_number=0.727

(I) COC(=O)Cc1c[nH]c2ccccc12 [INDOLE-3-METHYL ACETATE]
(II) OCCc1c[nH]c2ccccc12 [INDOLE-3-ETHANOL]
(III) Nc1ccccc1S(=O)(=O)O [ANILINE-2-SULFONATE]
(IV) CCC=CCC=CCC=CCC=CCC=CCCCC(=O)O [EICOSAPENTAENOATE]
(V) COC(=O)CCCC(=O)O [MONOMETHYLGLUTARATE]
# sort list by recorded LC retention time, greatest to least Order the labels as requested and give them as your answer.
IV, I, II, V, III
(IV: 13.9 min, I: 8.4 min, II: 4.78 min, V: 2.02 min, III: 0.823 min)
